Attribution: patent US20250368633A1

molecular target: RIPK1 kinase (Homo sapiens, UniProt Q13546); construct: purchased Promega VA7593; experiment: In vitro RIPK1 kinase activity assay (ADP-Glo), inhibition by compounds at 1 μM; assay type: biochemical; details: compound 1 μM; ATP 10 μM; MBP substrate 100 μg/mL; read-out: RIPK1 kinase activity inhibition rate range
Sequence (Q13546 whole entry): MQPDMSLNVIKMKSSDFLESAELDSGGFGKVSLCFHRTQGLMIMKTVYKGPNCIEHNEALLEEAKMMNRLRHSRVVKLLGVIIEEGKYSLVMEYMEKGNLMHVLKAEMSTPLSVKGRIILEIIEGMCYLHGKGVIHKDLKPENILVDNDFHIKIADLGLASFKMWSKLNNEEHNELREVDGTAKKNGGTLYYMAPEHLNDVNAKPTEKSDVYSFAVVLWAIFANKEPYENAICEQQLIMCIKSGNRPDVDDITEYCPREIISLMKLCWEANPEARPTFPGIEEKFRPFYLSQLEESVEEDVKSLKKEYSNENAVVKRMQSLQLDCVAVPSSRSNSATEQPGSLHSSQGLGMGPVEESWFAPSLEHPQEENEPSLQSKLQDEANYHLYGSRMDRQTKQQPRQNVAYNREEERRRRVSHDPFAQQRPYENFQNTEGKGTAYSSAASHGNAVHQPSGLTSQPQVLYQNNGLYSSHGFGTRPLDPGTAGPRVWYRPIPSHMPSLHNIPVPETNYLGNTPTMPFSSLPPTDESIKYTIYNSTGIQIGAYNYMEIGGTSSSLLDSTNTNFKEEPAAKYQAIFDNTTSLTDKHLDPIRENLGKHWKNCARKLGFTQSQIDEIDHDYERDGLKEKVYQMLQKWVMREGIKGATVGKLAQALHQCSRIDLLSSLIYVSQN
Measured property: inhibition at 1 µM

A selection of reference data follows.
CN1C(=O)[C@@H](NC(=O)C(=O)NCCc2cccs2)COc2ccccc21: ≥ 75%
CN1C(=O)[C@@H](NC(=O)C(=O)NCCc2ccccc2)COc2ccc(C#CCCN)cc21: ≥ 75%
Cc1ncsc1-c1ccc(CNC(=O)[C@@H]2C[C@@H](O)CN2C(=O)[C@@H](NC(=O)COCCOCCN2CCN(CC#Cc3ccc4c(c3)N(C)C(=O)[C@@H](NC(=O)C(=O)N[C@H](C)c3ccccc3)CO4)CC2)C(C)(C)C)cc1: ≥ 75%
CN1C(=O)[C@@H](NC(=O)C(=O)NCCc2ccccc2)COc2ccc(C#CCN3CCOCC3)cc21: 50 to 74%

Q) Let me know recorded inhibition at 1 µM for CN1C(=O)[C@@H](NC(=O)C(=O)NCCc2ccccc2)COc2ccc(C#CCNC(=O)OC(C)(C)C)cc21 , thanks.
A) 50 to 74%

Q) Write down inhibition at 1 µM measured for item CN1C(=O)[C@@H](NC(=O)C(=O)NCCc2ccccc2)COc2ccc(C#CCN3CCNCC3)cc21
A) 50 to 74%

Q) Assign inhibition at 1 µM to the following record: C#Cc1ccc2c(c1)N(C)C(=O)[C@@H](NC(=O)C(=O)NCCc1ccccc1)CO2
A) 50 to 74%

Q) Provide one value: measured inhibition at 1 µM of CN1C(=O)[C@@H](NC(=O)C(=O)NCc2ccccc2F)COc2ccc(C#CCCO)cc21
A) 50 to 74%

Q) Write down inhibition at 1 µM measured for item CCOC(=O)CCC#Cc1ccc2c(c1)N(C)C(=O)[C@@H](NC(=O)C(=O)NCCc1ccccc1)CO2
A) ≥ 75%

###

test system: U937 cells; test: EC50 of necroptosis inhibition in U937 cells (TSZ-induced, CellTiter-Glo); assay type: cell-based; settings: Homo sapiens, U-937; TSZ (hTNF-α, SM-164, Z-VAD-FMK) 20 hours; 10 concentration points; read-out: EC50 intervals of necroptosis inhibition in U937 cells
Measured property: EC50

# annotated cases, reported EC50 shown
COC(=O)C1(C#Cc2ccc3c(c2)N(C)C(=O)[C@@H](NC(=O)C(=O)NCCc2ccccc2)CO3)CC1 [Example 96]: < 100 nM
CN1C(=O)[C@@H](NC(=O)C(=O)NCCc2ccccc2)COc2ccc(C#Cc3cccs3)cc21 [Example 16]: < 100 nM
CN1C(=O)C(NC(=O)C(=O)NCCc2ccccc2)CCc2ccc(C#CCCO)cc21 (stereo not drawn) [Example 65]: < 100 nM
CN1C(=O)[C@H](NC(=O)C(=O)NCCc2ccccc2)COc2ccc(Br)cc21 [Example 71]: 500 to 2000 nM
CN1C(=O)[C@@H](NC(=O)C(=O)NCCc2ccccc2)COc2ccc(C#CCN3CCNCC3)cc21 [Example 49]: 100 to 500 nM
CN1C(=O)[C@@H](NC(=O)C(=O)NCCc2ccc(F)cc2)COc2ccc(C#CCCO)cc21 [Example 35]: 100 to 500 nM

Q) Supply recorded EC50 for CN1C(=O)[C@@H](NC(=O)C(=O)NCCc2ccccc2)COc2ccc(C#CC3(O)COC3)cc21 [Example 43] here.
A) < 100 nM

Q) Identify the reported EC50 for the following entry. COc1ccc2c(c1)N(C)C(=O)[C@@H](NC(=O)C(=O)NCCc1ccccc1)CO2 [Example 8]
A) 100 to 500 nM

Q) Please indicate EC50 recorded for C[C@@H](NC(=O)C(=O)N[C@H]1COc2ccc(C#CCN(C)C)cc2N(C)C1=O)c1ccccc1 [Example 146]
A) < 100 nM
